Reported GI50 values for a set of molecules
- Test system: CAKI-1 renal
- experimentalProtocol: NCI tumour cell line growth inhibition, 48 h

# example entries with known answers
> print(dat)
                                 smilesrepr  parametermeasured   result
1            CCCOC(=O)c1c(C)n(C)c2scc[n+]12               GI50  39.9 µM
2  CS(=O)(=O)c1ccc(Nc2nc(N[C@H]3CCCC[C@H]3N)nc3cc[nH]c(=O)c23)cc1               GI50  11.7 µM
3             O=C(/C=C/C=C/c1ccccc1)c1ccco1               GI50    16 µM

Q: State the recorded GI50 for this entry: COC(=O)c1c(-c2cccs2)oc(-c2cccs2)c1C(=O)OC
Ans: 26.7 µM
